Listed compounds paired with reported IC50
system: L1210 leukemia cells; test: Cytotoxicity against L1210 leukemia cell line in vitro; type: cell-based; conditions: Mus musculus, drug concentration required to inhibit cancer cell replication by 50%, tested up to 100 μM
reported-property: IC50

[[record]]
smiles_str = "Nc1nc(F)c(F)c2ncn([C@@H]3O[C@H](CO)[C@@H](O)[C@H]3O)c12"
study_system = "L1210 leukemia cells"
value = "> 100 µM"

[[record]]
smiles_str = "Nc1nc(F)c(Cl)c2ncn([C@@H]3O[C@H](CO)[C@@H](O)[C@H]3O)c12"
study_system = "L1210 leukemia cells"
value = "> 100 µM"

[[record]]
smiles_str = "Nc1ncc(F)c2c1ncn2[C@@H]1O[C@H](CO)[C@@H](O)[C@H]1O"
study_system = "L1210 leukemia cells"
value = "15 µM"

[[record]]
smiles_str = "CNc1nc(F)cc2c1ncn2[C@@H]1O[C@H](CO)[C@@H](O)[C@H]1O"
study_system = "L1210 leukemia cells"
value = "> 100 µM"


###

Catalogue of EC50 values
tested on: hepatitis B virus (HBV); test: Antiviral assay against hepatitis B virus in vitro; assay type: cell-based; conditions: maximum tested concentration 10 μM
reported-property: EC50 (µM)

[[record]]
smiles_str = "Nc1ncc(F)c2c1ncn2[C@@H]1O[C@H](CO)[C@@H](O)[C@H]1O"
reported_property = "EC50"
readout_qualifier = "="
value = 9.2

[[record]]
smiles_str = "Nc1nc(F)c(Cl)c2c1ncn2[C@@H]1O[C@H](CO)[C@@H](O)[C@H]1O"
reported_property = "EC50"
readout_qualifier = "="
value = 7.5

[[record]]
smiles_str = "Nc1nc(F)c(F)c2ncn([C@@H]3O[C@H](CO)[C@@H](O)[C@H]3O)c12"
reported_property = "EC50"
readout_qualifier = "≥"
value = 10


###

Each entry below carries its recorded IC50.
tested on: B16F10 melanoma cells; assay: Cytotoxicity against B16F10 melanoma cell line in vitro; assay type: cell-based; conditions: Mus musculus, B16-F10; drug concentration required to inhibit cancer cell replication by 50%; tested up to 100 μM
reported-property: IC50

[[record]]
compound = "Nc1nc(F)c(F)c2ncn([C@@H]3O[C@H](CO)[C@@H](O)[C@H]3O)c12 [Compound 58]"
value = "> 100 µM"

[[record]]
compound = "Nc1nc(F)cc2c1ncn2[C@H]1O[C@H](CO)[C@@H](O)[C@@H]1O [Compound 44]"
value = "> 100 µM"

[[record]]
compound = "CNc1nc(F)cc2c1ncn2[C@@H]1O[C@H](CO)[C@@H](O)[C@H]1O [Compound 39]"
value = "> 100 µM"

[[record]]
compound = "Nc1nc(F)cc2c1ncn2[C@@H]1O[C@H](CO)[C@@H](O)[C@@H]1O [Compound 43]"
value = "> 100 µM"


###

test system: B16F10 melanoma cells; test: Cytotoxicity against B16F10 melanoma cell line in vitro; format: cell-based; conditions: Mus musculus, B16-F10; drug concentration required to inhibit cancer cell replication by 50%; tested up to 100 μM
pIC50: −log10 of the molar value.
Catalogue of pIC50 values
reported-property: pIC50

[[record]]
molecule = "Nc1nc(F)cc2c1ncn2[C@@H]1O[C@H](CO)[C@@H](O)[C@H]1O [Compound 38]"
reported_property = "pIC50"
readout_qualifier = "="
value = 4.40

[[record]]
molecule = "Nc1[nH]c(=O)c2ncn([C@@H]3O[C@H](CO)[C@@H](O)[C@H]3O)c2c1Cl [Compound 61]"
reported_property = "pIC50"
readout_qualifier = "="
value = 4.46

[[record]]
molecule = "Nc1nc(F)c(Cl)c2c1ncn2[C@@H]1O[C@H](CO)[C@@H](O)[C@H]1O [Compound 59]"
reported_property = "pIC50"
readout_qualifier = "="
value = 4.00

[[record]]
molecule = "Nc1nc(F)c(Cl)c2ncn([C@@H]3O[C@H](CO)[C@@H](O)[C@H]3O)c12 [Compound 60]"
reported_property = "pIC50"
readout_qualifier = "<"
value = 4.00

[[record]]
molecule = "Nc1nc(F)c(F)c2c1ncn2[C@@H]1O[C@H](CO)[C@@H](O)[C@H]1O [Compound 57]"
reported_property = "pIC50"
readout_qualifier = "="
value = 4.00

[[record]]
molecule = "Nc1ncc(F)c2c1ncn2[C@@H]1O[C@H](CO)[C@@H](O)[C@H]1O [Compound 51]"
reported_property = "pIC50"
readout_qualifier = "="
value = 4.35

[[record]]
molecule = "Nc1ncc(Cl)c2c1ncn2[C@@H]1O[C@H](CO)[C@@H](O)[C@H]1O [Compound 52]"
reported_property = "pIC50"
readout_qualifier = "<"
value = 4.00

[[record]]
molecule = "Nc1[nH]c(=O)c2ncn([C@@H]3O[C@H](CO)[C@@H](O)[C@H]3O)c2c1Br [Compound 62]"
reported_property = "pIC50"
readout_qualifier = "="
value = 5.15

